Biological target: TYK2 (JH2 domain) (Homo sapiens (Human), UniProt P29597)
Sequence (P29597 589-875): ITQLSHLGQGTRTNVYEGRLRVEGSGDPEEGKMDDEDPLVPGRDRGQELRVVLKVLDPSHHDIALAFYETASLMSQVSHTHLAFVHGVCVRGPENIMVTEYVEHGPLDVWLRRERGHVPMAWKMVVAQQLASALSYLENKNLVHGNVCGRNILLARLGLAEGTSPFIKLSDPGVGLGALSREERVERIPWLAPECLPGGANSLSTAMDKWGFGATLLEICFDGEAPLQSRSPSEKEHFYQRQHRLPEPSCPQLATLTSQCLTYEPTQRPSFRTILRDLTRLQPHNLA
Experiment: TYK2 JH2 domain binding assay (DiscoverX KINOMEscan)
Conditions: 11-point 3-fold dilution, duplicate
pKd: −log10 of the molar value.

# COMPOUND, pKd
records = [
    ("[2H]C([2H])([2H])NC(=O)c1nnc(N2CCN(CCN(CC)CC)C2=O)cc1Nc1cccc(-c2ncn(C)n2)c1OC [Example 93]", "≥ 9.00"),
    ("[2H]C([2H])([2H])NC(=O)c1nnc(N2CCN(C3COC3)C2=O)cc1Nc1cccc(-c2ncn(C)n2)c1OC [Example 79]", "≥ 9.00"),
    ("[2H]C([2H])([2H])NC(=O)c1nnc(N2CCN(c3ccccc3)C2=O)cc1Nc1cccc(-c2ncn(C)n2)c1OC [Example 77]", "8.30 to 9.00"),
    ("[2H]C([2H])([2H])NC(=O)c1nnc(N2CCN(C3CC(C)(C)C3)C2=O)cc1Nc1cccc(-c2ncn(C)n2)c1OC [Example 101]", "≥ 9.00"),
    ("[2H]C([2H])([2H])NC(=O)c1nnc(N2CCN(C3CCOC3)C2=O)cc1Nc1cccc(-c2ncn(C)n2)c1OC (stereo not shown) [Example 80]", "≥ 9.00"),
    ("COc1c(Nc2cc(NC(=O)C3CC3)ncc2C(=O)C2CC2)cccc1-c1nnn(C)n1 [Example 51]", "≥ 9.00"),
    ("COc1c(Nc2cc(NC(=O)C3CC3)nc3ncn(C)c(=O)c23)cccc1-c1ncn(C)n1 [Example 39]", "8.00 to 8.30"),
]

The reported measurements were obtained from patent US11053219B2.
